# METHOD: NOVARTIS: Cytotoxicity against human hepatocellular carcinoma cell line (Huh7)
# Format: toxicity, cell-based, Huh-7
# RUN CONDITIONS: Huh7 cells (hepatocellular carcinoma cell line)
EXPERIMENTAL READOUT: CC50

Sample records with CC50:
CCCCCN(C(=O)Nc1ccccc1OC)C(CC)c1nc2ccccc2c(=O)n1-c1ccccc1OC (stereo not given) | > 10 µM
CCc1cc2c(NCCN3CCCCC3)ncnc2s1 | > 96.1 µM
COc1cccc(Cn2c(C)nc3cc(NC(=O)Nc4ccccc4)c(C)nc32)c1 | > 13.1 µM
CCOC(=O)N1CCC(n2c(SCC(=O)N3CCCCCC3)nc3ccccc3c2=O)CC1 | > 100 µM

Continue with the compound presented below.
Name the reported CC50 value associated with the compound `CCCCCCn1c2c(c(=N)c3c1CCC3)CCCC2`
> 10 µM

* * *

# METHOD: NOVARTIS: Cytotoxicity against human hepatocellular carcinoma cell line (Huh7)
# Type: toxicity, cell-based, Huh-7
# RUN CONDITIONS: Huh7 cells (hepatocellular carcinoma cell line)
CC50 values by entry

c1ccc(-c2cc(N3CCc4ccccc4C3)nc(-c3ccccn3)n2)nc1 | > 10 µM
CC1=C(C(=O)OC(C)C)C(c2cccc([N+](=O)[O-])c2)C2=C(CCCC2=O)N1 (stereo not drawn) | > 100 µM

Continue with the compound presented below.
Name the reported CC50 value associated with the compound Oc1ccc(-c2ccnc3cc(Cl)ccc23)cc1CNC1CN2CCC1CC2 (stereo not drawn)
> 10 µM

* * *

EC50 values by entry
# Test system: Plasmodium falciparum
# METHOD: NOVARTIS: Inhibition of Plasmodium falciparum W2 (drug-resistant) proliferation in erythrocyte-based infection assay
# Type: functional, organism-based
# RUN CONDITIONS: Plasmodium falciparum, W2; read-out: EC50

Cc1ccc(S(=O)(=O)NCCCCNc2ccnc3cc(Cl)ccc23)cc1 | < 20.4 nM
COc1cccc2cc(-c3csc(NC(=O)CCC(=O)NC4CCCC4)n3)c(=O)oc12 | > 1070 nM

Continue with the compound presented below.
Give the reported EC50 for `CCCCCCc1ccc(C(=O)N(CC(=O)Nc2cc(C(C)(C)C)nn2-c2ccc(Cl)c(Cl)c2)C(C)C)cc1` (system: Plasmodium falciparum).
> 752 nM

* * *

# Test system: Plasmodium falciparum
# METHOD: NOVARTIS: Inhibition of Plasmodium falciparum 3D7 (drug-susceptible) proliferation in erythrocyte-based infection assay
# Format: functional, organism-based
# RUN CONDITIONS: Plasmodium falciparum, 3D7
EXPERIMENTAL READOUT: pEC50
Notebook: values listed as pEC50 are -log10 of the concentration (mol/L).

Name the reported pEC50 value associated with the compound `O=C(Nc1ccc(-c2nc3cc(NC(=O)c4ccc(Br)o4)ccc3[nH]2)cc1)c1ccc(Br)o1`
6.53

Name the reported pEC50 value associated with the compound COc1ccc(OC)c(-c2ccc(O)c(CN3CCCC(C)C3)c2)c1 (stereo not given)
6.88

Name the reported pEC50 value associated with the compound `Cc1[nH]c2ccccc2c1/C=C/c1cc[n+](C)cc1`
6.59

Name the reported pEC50 value associated with the compound `Cc1nc(-c2ccccn2)nc(NCCc2ccccc2)c1Cl`
5.90

Name the reported pEC50 value associated with the compound CCCCC(CC)C(=O)N1CCN(C(CC)c2nc3ccccc3c(=O)n2C)CC1 (stereo not given)
6.43
